# tgt: GlcNAc(b1-3)[GlcNAc(b1-6)]GalNAc
# assay-info: glycan array binding signal (z-score within array); higher = stronger binding
# test-parameters: glycan notation: IUPAC condensed, linker removed
This is one part of a sample in which the strongest signals are shown more often than they occur.
glycan array binding signal (z-score) by entry:
Reply briefly: the number, and no unit.

Known results for binders:
Gal 3C (Homo sapiens), P17931 (protein) YGAPAGPLIVPYNLPLPGGVVPRMLITILGTVKPNANRIALDFQRGNDVAFHFNPRFNENNRRVIVCNTKLDNNWGREERQSVFPFESGKPFKIQVLVEPDHFKVAVNDAHLLQYNHRVKKLNEISKLGISGDIDLTSASYTMI = -0.331
Cohesin-hDCIR (Homo sapiens) (protein) LDDLDAVRIKVDTVNAKPGDTVRIPVRFSGIPSKGIANCDFVYSYDPNVLEIIEIEPGDIIVDPNPDKSFDTAVYPDRKIIVFLFAEDSGTGAYAITKDGVFATIVAKVKEGAPNGLSVIKFVEVGGFANNDLVEQKTQFFDGGANVGDTTEPATPTTPVTTPTTTDDLDAASQKYSQLLEKKTTKELVHTTLECVKKNMPVEETAWSCCPKNWKSFSSNCYFISTESASWQDSEKDCARMEAHLLVINTQEEQDFIFQNLQEESAYFVGLSDPEGQRHWQWVDQTPYNESSTFWHPREPSDPNERCVVLNFRKSPKRWGWNDVNCLGPQRSVCEMMKIHLHHHHHH = -0.401
CML1 (Coprinopsis cinerea) (protein) MAIFHTGSELFIITRGPGKLTLLTWGGLNNLRSVIGAIPTENTGVTKWAVSFSHNYTRFSFIWEGQGEACYQIGNGLTRSPVGRSWSSSSTIHWGSSTVITEDVTSVVPGAVNRDKVTTAYALPDNL = -0.329

Exercise: Consider the binder CD83 (Homo sapiens) (protein) MSRGLQLLLLSCAYSLAPATPEVKVACSEDVDLPCTAPWDPQVPYTVSWVKLLEGGEERMETPQEDHLRGQHYHQKGQNGSFDAPNERPYSLKIRNTTSCNSGTYRCTLQDPDGQRNLSGKVILRVTGCPAQRKEETFKKYRAETSEQKLISEEDLSRGSDDDDKAEPRGP and give its measured glycan array binding signal (z-score).
Key: -0.453

Numbers sourced from the supplement of paper PMC8728848.
